# TARGET_SYSTEM: PRMT5-MEP50 enzyme (Homo sapiens, UniProt O14744)
# Construct: One virus expresses full length human PRMT5 with Flag-tag at N-terminus; Flag (N); purchased Charles River (Argenta); host or cells: insect cells (Sf9), baculovirus co-infection
# Sequence (O14744 whole entry): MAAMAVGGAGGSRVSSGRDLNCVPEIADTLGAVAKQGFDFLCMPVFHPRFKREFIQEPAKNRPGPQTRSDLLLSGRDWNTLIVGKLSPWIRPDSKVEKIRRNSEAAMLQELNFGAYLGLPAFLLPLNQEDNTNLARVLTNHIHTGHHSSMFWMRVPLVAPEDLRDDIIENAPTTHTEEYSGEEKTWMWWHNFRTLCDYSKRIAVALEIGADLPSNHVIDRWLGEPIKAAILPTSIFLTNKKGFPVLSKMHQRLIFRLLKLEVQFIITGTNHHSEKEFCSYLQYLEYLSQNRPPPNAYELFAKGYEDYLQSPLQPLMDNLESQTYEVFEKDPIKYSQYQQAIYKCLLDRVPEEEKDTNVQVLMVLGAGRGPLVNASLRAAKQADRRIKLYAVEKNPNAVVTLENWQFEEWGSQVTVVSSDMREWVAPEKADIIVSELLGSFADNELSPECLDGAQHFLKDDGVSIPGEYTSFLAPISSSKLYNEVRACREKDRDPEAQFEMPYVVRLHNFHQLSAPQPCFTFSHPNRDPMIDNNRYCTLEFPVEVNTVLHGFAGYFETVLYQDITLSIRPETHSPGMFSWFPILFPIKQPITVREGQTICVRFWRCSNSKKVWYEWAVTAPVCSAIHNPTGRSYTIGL
# Sequence (Q9BQA1 whole entry partner): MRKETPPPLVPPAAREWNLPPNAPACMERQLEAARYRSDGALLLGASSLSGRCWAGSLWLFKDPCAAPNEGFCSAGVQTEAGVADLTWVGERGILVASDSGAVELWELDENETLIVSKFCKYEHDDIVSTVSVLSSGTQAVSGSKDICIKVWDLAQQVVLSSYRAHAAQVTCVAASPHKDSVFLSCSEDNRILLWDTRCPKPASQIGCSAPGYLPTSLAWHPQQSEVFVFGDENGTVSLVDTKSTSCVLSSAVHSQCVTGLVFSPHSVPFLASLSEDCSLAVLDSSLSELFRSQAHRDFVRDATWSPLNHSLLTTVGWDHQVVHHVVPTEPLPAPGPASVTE
# PROTOCOL_NOTES: In vitro assay 1a: high throughput mass spectrometer assay of SAH formation, 10 nM enzyme, 60 min
# Type: biochemical
# EXPERIMENTAL_PARAMETERS: averaged values, PRMT5-MEP50, 10 nM enzyme, read-out: pIC50 Assay 1a (converted)
VALUE_KIND: IC50 (nM)
Unit nM implied. Number only.

{"COMPOUND": "Nc1ncnc2c1ccn2[C@@H]1C[C@H](CCc2ccc3cc(Cl)c(NCC4CC4)nc3c2)[C@@H](O)[C@H]1O [Compound 147]", "RESULT_VALUE": 251}
{"COMPOUND": "Nc1ncnc2c1ccn2[C@@H]1C[C@H](Cc2ccc3ccncc3c2)[C@@H](O)[C@H]1O [Compound 95]", "RESULT_VALUE": 316}
{"COMPOUND": "Nc1ncnc2c1ccn2[C@@H]1O[C@H](COc2cc3ncccc3cc2Cl)[C@@H](O)[C@H]1O [Compound 91]", "RESULT_VALUE": 126}

I would be grateful if you could share the reported IC50 for Nc1ncnc2c1c(F)cn2[C@@H]1O[C@H](COc2ccc3cccnc3c2)[C@@H](O)[C@H]1O [Compound 44] .
63.1

----------
# TARGET_SYSTEM: PRMT5-MEP50 enzyme (Homo sapiens, UniProt O14744)
# Construct: One virus expresses full length human PRMT5 with Flag-tag at N-terminus; Flag (N); purchased Charles River (Argenta); host or cells: insect cells (Sf9), baculovirus co-infection
# PROTOCOL_NOTES: In vitro assay 1b: high throughput mass spectrometer assay of SAH formation, 1.25 nM enzyme, 120 min
# Assay type: biochemical
# EXPERIMENTAL_PARAMETERS: averaged values; PRMT5-MEP50, 1.25 nM enzyme, 120 min; read-out: pIC50 Assay 1b (converted)
VALUE_KIND: IC50 (nM)
Unit nM implied. Number only.

Recorded IC50, per entry:
{"SMILES_STRING": "Nc1ncnc2c1ccn2[C@@H]1O[C@H](COc2ccc3cccnc3n2)[C@@H](O)[C@H]1O", "IC50, nM": 1580}
{"SMILES_STRING": "NC(=O)c1ccc2ccc(OC[C@H]3O[C@@H](n4ccc5c(N)ncnc54)[C@H](O)[C@@H]3O)cc2n1", "IC50, nM": 3160}
{"SMILES_STRING": "Nc1nc2cc(CC[C@H]3C[C@@H](n4ccc5cccnc54)[C@H](O)[C@@H]3O)ccc2cc1Cl", "IC50, nM": 20}

I would be grateful if you could share the reported IC50 for `Nc1ncnc2c1ccn2[C@@H]1C[C@H](CCc2ccc3cc(Cl)c(NCC4CC4)nc3c2)[C@@H](O)[C@H]1O` .
251

----------
# TARGET_SYSTEM: PRMT5-MEP50 enzyme (Homo sapiens)
# Construct: One virus expresses full length human PRMT5 with Flag-tag at N-terminus; Flag (N); purchased Charles River (Argenta); host or cells: insect cells (Sf9), baculovirus co-infection
# PROTOCOL_NOTES: In vitro assay 1a: high throughput mass spectrometer assay of SAH formation, 10 nM enzyme, 60 min
# Assay type: biochemical
# EXPERIMENTAL_PARAMETERS: averaged values, PRMT5-MEP50, 10 nM enzyme, read-out: pIC50 Assay 1a (converted)
VALUE_KIND: IC50 (nM)
Unit nM implied. Number only.

{"COMPOUND": "CC(C)Cc1cnc2cc(OC[C@H]3O[C@@H](n4ccc5c(N)ncnc54)[C@H](O)[C@@H]3O)ccc2c1", "READOUT_UNITS": "nM", "IC50": 50.1}
{"COMPOUND": "O[C@@H]1[C@@H](CCc2ccc3ccc(NCC4CC4)nc3c2)C[C@@H](n2ccc3cncnc32)[C@@H]1O", "READOUT_UNITS": "nM", "IC50": 1}
{"COMPOUND": "Nc1ncnn2c([C@@H]3O[C@H](/C=C/c4ccc5cccnc5c4)[C@@H](O)[C@H]3O)ccc12", "READOUT_UNITS": "nM", "IC50": 398}

I would be grateful if you could share the reported IC50 for `Nc1ncnc2c1ccn2[C@@H]1C[C@H](Cc2ccc3cccnc3c2)[C@@H](O)[C@H]1O` .
2000

I would be grateful if you could share the reported IC50 for `Nc1ncnc2c1ccn2[C@@H]1O[C@H](COc2ccc3ccc(O)nc3c2)[C@@H](O)[C@H]1O` .
79.4

I would be grateful if you could share the reported IC50 for `Nc1ncnc2c1ccn2[C@@H]1O[C@H](COc2cc3ncc(Br)cc3cc2Cl)[C@@H](O)[C@H]1O` .
63.1

I would be grateful if you could share the reported IC50 for `Nc1ncnc2c1ncn2[C@@H]1O[C@H](COc2cc3ncc(Br)cc3cc2Cl)[C@@H](O)[C@H]1O` .
3980

I would be grateful if you could share the reported IC50 for `Nc1ccc2ccc(CC[C@H]3O[C@@H](n4ccc5cncnc54)[C@H](O)[C@@H]3O)cc2n1` .
0.794

I would be grateful if you could share the reported IC50 for `COc1ncnc2c1ccn2[C@@H]1C[C@H](CCc2ccc3ccc(N)nc3c2)[C@@H](O)[C@H]1O` .
0.398

----------
# TARGET_SYSTEM: PRMT5-MEP50 enzyme (Homo sapiens, UniProt O14744)
# Construct: One virus expresses full length human PRMT5 with Flag-tag at N-terminus; Flag (N); purchased Charles River (Argenta); host or cells: insect cells (Sf9), baculovirus co-infection
# PROTOCOL_NOTES: In vitro assay 1b: high throughput mass spectrometer assay of SAH formation, 1.25 nM enzyme, 120 min
# Format: biochemical
# EXPERIMENTAL_PARAMETERS: averaged values; PRMT5-MEP50, 1.25 nM enzyme, 120 min; read-out: pIC50 Assay 1b (converted)
VALUE_KIND: log10(IC50) (log10 of the value in nM)
Values are log10 of IC50 in nM.

Recorded log10(IC50), per entry:
{"COMPOUND": "Nc1ncnc2c1ccn2[C@@H]1O[C@H](COc2ccc3cc(Br)cnc3c2)[C@@H](O)[C@H]1O [Compound 2]", "VALUE_KIND": "log10(IC50)", "RESULT_VALUE": 1.40}
{"COMPOUND": "CNc1ccc2ccc(CC[C@H]3O[C@@H](n4ccc5c(Cl)ncnc54)[C@H](O)[C@@H]3O)cc2n1 [Compound 128]", "VALUE_KIND": "log10(IC50)", "RESULT_VALUE": 1.80}
{"COMPOUND": "Nc1nc2cc(CC[C@H]3C[C@@H](n4ccc5c(NC6CC6)ncnc54)[C@H](O)[C@@H]3O)ccc2cc1Cl [Compound 197]", "VALUE_KIND": "log10(IC50)", "RESULT_VALUE": -0.20}
{"COMPOUND": "Nc1nc2cc(CC[C@H]3C[C@@H](n4ccc5nccnc54)[C@H](O)[C@@H]3O)ccc2cc1Cl [Compound 250]", "VALUE_KIND": "log10(IC50)", "RESULT_VALUE": 1.50}
{"COMPOUND": "O[C@@H]1[C@@H](CCc2ccc3ccc(NCC4CC4)nc3c2)C[C@@H](n2ccc3cncnc32)[C@@H]1O [Compound 166]", "VALUE_KIND": "log10(IC50)", "RESULT_VALUE": 0.70}

I would be grateful if you could share the reported log10(IC50) for O[C@@H]1[C@H](O)[C@@H](CCc2ccc3ccc(NCC4CC4)nc3c2)O[C@H]1n1ccc2c(Cl)ncnc21 [Compound 138] .
1.90

I would be grateful if you could share the reported log10(IC50) for Nc1ncnc2c1ccn2[C@@H]1C[C@H](OCc2ccc3ncccc3c2)[C@@H](O)[C@H]1O [Compound 65] .
3.00

----------
# TARGET_SYSTEM: PRMT5-MEP50 enzyme (Homo sapiens, UniProt O14744)
# Construct: One virus expresses full length human PRMT5 with Flag-tag at N-terminus; Flag (N); purchased Charles River (Argenta); host or cells: insect cells (Sf9), baculovirus co-infection
# PROTOCOL_NOTES: In vitro assay 1a: high throughput mass spectrometer assay of SAH formation, 10 nM enzyme, 60 min
# Type: biochemical
# EXPERIMENTAL_PARAMETERS: averaged values, PRMT5-MEP50, 10 nM enzyme, read-out: pIC50 Assay 1a (converted)
Exam item: assign yes (1) to entries whose IC50 is below 0.03 µM and no (0) to entries at or above 0.03 µM. Note that a value of exactly 0.03 µM receives no (0).

Recorded results for 10 compounds are shown here.
{"COMPOUND": "CNc1ncnc2c1ccn2[C@@H]1O[C@H](COc2ccc3ccc(N)nc3c2)[C@@H](O)[C@H]1O [Compound 186]", "TARGET_SYSTEM": "PRMT5-MEP50 enzyme (Homo sapiens, UniProt O14744)", "CLASS_NAME": "yes (1)"}
{"COMPOUND": "Nc1ncnc2c1ccn2[C@@H]1O[C@H](COc2cc(Cl)c3cccnc3c2)[C@@H](O)[C@H]1O [Compound 102]", "TARGET_SYSTEM": "PRMT5-MEP50 enzyme (Homo sapiens, UniProt O14744)", "CLASS_NAME": "no (0)"}
{"COMPOUND": "Nc1ncnc2c1ccn2[C@@H]1O[C@H](COc2ccc3ccc(Cl)nc3c2)[C@@H](O)[C@H]1O [Compound 20]", "TARGET_SYSTEM": "PRMT5-MEP50 enzyme (Homo sapiens, UniProt O14744)", "CLASS_NAME": "no (0)"}
{"COMPOUND": "Nc1ncnc2c1c(Br)cn2[C@@H]1O[C@H](COc2ccc3cccnc3c2)[C@@H](O)[C@H]1O [Compound 45]", "TARGET_SYSTEM": "PRMT5-MEP50 enzyme (Homo sapiens, UniProt O14744)", "CLASS_NAME": "no (0)"}
{"COMPOUND": "Nc1ncnc2c1ccn2[C@@H]1O[C@H](COc2ccc3c(C(F)(F)F)ccnc3c2)[C@@H](O)[C@H]1O [Compound 99]", "TARGET_SYSTEM": "PRMT5-MEP50 enzyme (Homo sapiens, UniProt O14744)", "CLASS_NAME": "no (0)"}
{"COMPOUND": "Nc1ccc2ccc(OC[C@H]3O[C@@H](n4ccc5c(O)ncnc54)[C@H](O)[C@@H]3O)cc2n1 [Compound 208]", "TARGET_SYSTEM": "PRMT5-MEP50 enzyme (Homo sapiens, UniProt O14744)", "CLASS_NAME": "no (0)"}
{"COMPOUND": "Nc1ncnc2c1ccn2[C@@H]1O[C@H](CCc2ccc3cc(Cl)cnc3c2)[C@@H](O)[C@H]1O [Compound 59]", "TARGET_SYSTEM": "PRMT5-MEP50 enzyme (Homo sapiens, UniProt O14744)", "CLASS_NAME": "yes (1)"}
{"COMPOUND": "Nc1ncnc2c1ccn2[C@@H]1O[C@H](COc2ccc3ccc(C(F)(F)F)nc3c2)[C@@H](O)[C@H]1O [Compound 22]", "TARGET_SYSTEM": "PRMT5-MEP50 enzyme (Homo sapiens, UniProt O14744)", "CLASS_NAME": "no (0)"}
{"COMPOUND": "CN(C)c1ccc2ccc(OC[C@H]3O[C@@H](n4ccc5c(N)ncnc54)[C@H](O)[C@@H]3O)cc2n1 [Compound 23]", "TARGET_SYSTEM": "PRMT5-MEP50 enzyme (Homo sapiens, UniProt O14744)", "CLASS_NAME": "no (0)"}
{"COMPOUND": "Nc1ncnc2c1ccn2[C@@H]1O[C@H](COc2cnc3cccnc3c2)[C@@H](O)[C@H]1O [Compound 14]", "TARGET_SYSTEM": "PRMT5-MEP50 enzyme (Homo sapiens, UniProt O14744)", "CLASS_NAME": "no (0)"}

Lab note: IC50 threshold 0.03 µM. Does this compound come in strictly under it? Nc1cnc2ccc(CC[C@H]3C[C@@H](n4ccc5c(Cl)ncnc54)[C@H](O)[C@@H]3O)cc2n1 [Compound 143]
yes (1)

Lab note: IC50 threshold 0.03 µM. Does this compound come in strictly under it? Cc1cnc2cc(CC[C@H]3C[C@@H](n4ccc5c(N)ncnc54)[C@H](O)[C@@H]3O)ccc2c1 [Compound 113]
yes (1)

Lab note: IC50 threshold 0.03 µM. Does this compound come in strictly under it? Nc1ncnc2c1ccn2[C@@H]1O[C@H](C#Cc2ccc3cccnc3c2)[C@@H](O)[C@H]1O [Compound 63]
yes (1)

Lab note: IC50 threshold 0.03 µM. Does this compound come in strictly under it? O[C@@H]1[C@@H](CCc2ccc3ccc(NCc4ccc(Cl)cc4)nc3c2)C[C@@H](n2ccc3c(Cl)ncnc32)[C@@H]1O [Compound 114]
yes (1)

Lab note: IC50 threshold 0.03 µM. Does this compound come in strictly under it? Nc1ncnc2c1ccn2[C@@H]1O[C@H](COc2ccc3c(Cl)ccnc3c2)[C@@H](O)[C@H]1O [Compound 33]
no (0)

Values compiled from patent US11318157B2.
